# EXPERIMENTAL_PROTOCOL: Saturation mutagenesis of SEQ ID NO:109: dicamba decarboxylation activity of point mutants (CO2 released), fold of backbone (Tables 7, 8, Megatable 1)
# STUDY_CONDITIONS: decarboxylation activity (CO2 released) of point mutant vs unmutated backbone protein; backbone SEQ ID NO: 109
MEASURED_ENDPOINT: Fold Activity (fold)
Respond with the bare value in fold.

26 (protein, listed as Variovorax paradoxus) MATHMAPMKNKIALEEHFAIDLTIADSQVYARPEVWQGLKSNLLDFEQQRLEKMDEWGTEFSILSLNSPAVQGIPDAKRAIEVAQRANDVLAEQVKRHPTRFGGFAALPMQDPEASARELERCVNQLGFHGFLVNGFSQVGDENIVVYYDDARFNDFWTAAAALKKPFYMHPRDPLLAREPIYDGAHWLTGPTWAFAMETAIHALRLMSSGMFDRHPALQMILGHFGEGIPFNIWRVDHILRKGRRGMPCDKEIGEYLRSNVHITTSGNFRTPTLLSTMLEVGSDRIMYSVDYPFEKHEDAARWFDTCEISENDRQKIGRDNARKLFGLK ... 1.2
75 (protein, listed as Ectocarpus siliculosus) MAKIDSYTHFACPAFMDHLEAESGHPMVFRGLFSSIPELSDIDLRIRYMDEHGIDVHCLVPLPWLECEPGLHADEGKALEACRIANDEMARVVARFPDRLIGVALIPTTTEQAMIQETTRAVKELGMAGVALFVGPTAKPPDMACFEGLYRTCEELGAVVWMHPCRPQSYADYDSYKGEGSKHQIWNTFGWIYDTSVAMVHIALAGVFRRYPGLKVVTHHHGAMVPFFTARFDTQRRNFQEVEGDDLLEDLRLFYCDTATFGESAANIQQAIDFFGKSQVLFGTDTPMDMGTRGMFTRTTIASVEALGAAPEDKESFYAGNVLDMLGERFAGISGARGAVAARPKGDSTRIAASL ... 1.7
81 (protein, listed as Verticillium dahliae) MAASTKPKVVDIHTHMYPPSYIDILTSRTAIPVVRTFPQAADPRLILLDAEQQALDAALQDPTAKPPGRPLTSHYASLDQKIHFMDTHSIDISVVSLANPWLDFIEPKEAAATARSVNDEFEAMCASQPGRLFFFAALPLTAPLPALLEAVRHVAELEHCRGVILGTSGLGSGLDDPELVPVLEAVAAAALTVFLHPHYGLPNDVWGPRASAEYGHVLPLALGFPMETTIAVARMYLAGVFDRVPALRMLLAHSGGTLPFLAGRIESCILHDGQLVAEGKVGAARRTIWDVLREQVYLDAVIYSEIGLKAAIAASGGADRLMFGTDHPFFPPLGTDEQAKKESRINAGGSRPMITGNAMINGHGGLCNHITQSDYQDVVL ... 1.2
4 (protein, listed as Lactobacillus buchneri) MAKVITLEEHFSSQKLGQKMAEVLPKRPIGNVSPKMQDYMQRSLPPEAELEDVTGSRIQWMDQHQISMQILSYGNQNPQNSDPKFAVELTKLANDELAKAVAKAPDRFRAFASLPVSHPTDAAAELKRGVEELGFKGAMLVRPTSQAHPFFDDPFYLPIFEAAANLNVPVYLHPSFPDSQIIDYYYSNGPWDDKVSGILGTAGYGWHTDVGIQTVRLLLSGVFEKYPNLKLISGHWGEFASFALERMDQVMYPETNLSEPISKIYRDHVYVTPSGILTEPQLKFVKDEVGIEHLLYSIDYPYIKPENSGSFIESSPLTDEEKELFAHGNAEKLLQL ... 1

Per the records, this molecule ( 83 (protein, listed as Mycobacterium rhodesiae) MALIALEEHYAWSPVSAGNVVGSWLETHNVTAYQRLYDRGPLRLEQMDAAGIDFQILSLFDPGVQDDDDTARAVENARRANDDLAETVRAAPDRFGGFATLAPQDPDAAAAELERAVGELGLVGGLINGHTHGRYLDDPAYLGLFECAQRLGVPIYLHPTTPHPAVMDAWFAPYVKDGLHLASWGFAAETGTHALRLIYSGLFDTFPRLQMILGHLGEMLPYAAYRIDRYYGLGGGDDGGRLARLPSEYLRDNFHVTTSGNFNPVAFACALDVMGPDRLMFSVDYPMDDNVTGAEFLRNLEVDDDVRRKVAGENALQLFGDKIPRR ) has Fold Activity equal to 1.9

Reported Fold Activity ( 37 (protein, listed as Burkholderia gladioli) MATFSNVKKIALEEHFAIAETIEDSAGFVPPDDWVELRGRLLDIQERRLAEMDRAGIELMVLSLNAPAVQAIRDPRQAVELARRANDYLAEQVARRPDRFRAFAALPMQAPEQAIREAERCVRELGFVGALVNGFSEAEDGAELYYDLPRYRPFWAALEALEVPFYLHPRNPLAGRAPIYDGHSWLMGPTWAFGQETAVHALRLMGSGLFDAHPRLQIILGHMGEGLPYSMWRVDNRNAWVSAKPNYPAEKPIAEYFRNNFWLTTSGNFRTQTLIDAMLEIGSDRILFSADWPFENMDHAADWFDHASISENDRIKIGRGNAERLLKLGR ) = 1.6

Item: 33 (protein, listed as Rhizobium leguminosarum) MAQGKIALEEHFAIPETLQDSAGFVPGDYWKELSARLLDIQEKRLRLMDAHGIEKMILSLNAPAVQAIPDRAKALEISRRANDFLAEQCVKNPNRFLGFAALPLQDPDAATQELQRCVTTMGFVGALVNGFSQEGDGTTPLYYDLPQYRSFWAEVEKLNVPFYLHPRNPLPQDSRIYAGHSWLMGPTWAFAQETAVHALRLMGSGLFDEHPALRIIVGHMGEGLPYMMWRIDNRNAWVKVEKSYPAKRPIADYFNENFYITTSGNFRTQSLIDAMLEIGADRILFSADWPFENIDHAANWFDSATISEADRLKIGRTNAVSLFKLDR | Fold Activity: 1.6

What the record says about 101 (protein, listed as Aquifex aeolicus) MAQKIALCITGASGVIYGIKLLQVLEELDFSVDLVISRNAKVVLKEEHSLTFEEVLKGLKNVRIHEENDFTSPLASGSRLVHYRGVYVVPCSTNTLSCIANGINKNLIHRVGEVALKERVPLVLLVREAPYNEIHLENMLKITRMGGVVVPASPAFYHKPQSIDDMINFVVGKLLDVLRIEHNLYKRWRG : Fold Activity is 1.8
